assay: Metabolic stability in rat liver microsomes assessed as remaining compound at 10 uM measured at 15 mins by LC-MS/MS analysis relative to control; format: ADME, Microsome; details: read-out: Stability
Value Type: remaining at 0.25 h, 10 µM (%)
A number alone suffices; assume %.

In: # remaining at 0.25 h, 10 µM lookup, item CCOC(=O)C1=C(C)NC(=O)NC1c1cc2c(cc1OC)OC(C)(CC)C=C2Cl (stereo unspecified)
Out: 76

###

assay: Intrinsic clearance in human liver at 10 uM by LC-MS/MS analysis; assay type: ADME, tissue-based; conditions: read-out: CLH
Value Type: CLint scaled at 10 µM (mL/min/kg)
Answer with a number only, understood to be in mL/min/kg.

In: CLint scaled at 10 µM for CCOC(=O)C1=C(C)NC(=O)NC1c1cc2c(cc1OC)OC(C)(CC)C=C2Cl (stereo unspecified) ?
Out: 32.3

###

assay: Intrinsic clearance in rat microsome at 10 uM by LC-MS/MS analysis; type: ADME; details: microsomes
Value Type: CLint (µL/min/mg)
Kindly provide the numeric value in µL/min/mg only, without the unit symbol.

In: Look up CLint: CCOC(=O)C1=C(C)NC(=O)NC1c1cc2c(cc1OC)OC(C)(CC)C=C2Cl (stereo unspecified)
Out: 19

###

assay: Metabolic stability in human liver microsomes assessed as remaining compound at 10 uM measured at 45 mins by LC-MS/MS analysis relative to control; format: ADME, Microsome; details: read-out: Stability
Value Type: remaining at 0.75 h, 10 µM (%)
Write down the numeric answer in % and omit the unit.

In: Form field: reported remaining at 0.75 h, 10 µM of CCOC(=O)C1=C(C)NC(=O)NC1c1cc2c(cc1OC)OC(C)(CC)C=C2Cl (stereo unspecified)
Out: 73

###

blood plasma ratio at 0 min, 0.5 µM overview
test: Ratio of drug level in blood to plasma (unknown origin) at 500 nM measured immediately by LC-MS/MS analysis; format: ADME, cell-free; details: blood and plasma
Note: the reply should be a number with no unit written.

                                   compound                           value_type  reported_result
0  CCOC(=O)C1=C(C)NC(=O)NC1c1cc2c(cc1OC)OC(C)(CC)C=C2Cl (configuration not stated)  blood plasma ratio at 0 min, 0.5 µM              0.9

API: the following record is the query input.
In: Quick check: blood plasma ratio at 0 min, 0.5 µM of CC(C)NCC(O)COc1ccc(CC(N)=O)cc1 (configuration not stated) [ATENOLOL] ?
Out: 1.3

###

test: Metabolic stability in rat liver microsomes assessed as remaining compound at 10 uM measured at 30 mins by LC-MS/MS analysis relative to control; assay type: ADME, Microsome; conditions: read-out: Stability
Value Type: remaining at 0.5 h, 10 µM

In: Recorded remaining at 0.5 h, 10 µM for CCOC(=O)C1=C(C)NC(=O)NC1c1cc2c(cc1OC)OC(C)(CC)C=C2Cl (stereo unspecified) , please?
Out: 76%

###

test: Ratio of drug level in blood to plasma (unknown origin) at 500 nM incubated for 45 mins by LC-MS/MS analysis; type: ADME, cell-free; conditions: blood and plasma
Value Type: blood plasma ratio at 0.75 h, 0.5 µM
Number only, please.

>>> print(df.to_string())
                                   compound                            value_type  reported_result
0  CC(C)NCC(O)COc1ccc(CC(N)=O)cc1 (configuration not stated) [ATENOLOL]  blood plasma ratio at 0.75 h, 0.5 µM             1.15

Lab note: next compound to report on.
In: Which blood plasma ratio at 0.75 h, 0.5 µM reading was recorded for the compound CCOC(=O)C1=C(C)NC(=O)NC1c1cc2c(cc1OC)OC(C)(CC)C=C2Cl (configuration not stated) ?
Out: 1.35
